All figures here come from paper PMC3134853.

- test name: Determination of drug solubility (distilled water and phosphate buffer pH 7.4)
- Type: physicochemical
- condition summary: distilled water, room temperature, UV 222 nm; read-out: Solubility in distilled water
endpoint: solubility at 24 h
Answers without a unit are incomplete; give the number and then its unit.

Ask | Please give measured solubility at 24 h of the following entry: CC(C)Cc1ccc(C(C)C(=O)O)cc1 (stereo not shown)
Reply | 10.6 µg/mL

----------
- test name: Determination of drug solubility (distilled water and phosphate buffer pH 7.4)
- Assay type: physicochemical
- condition summary: phosphate buffer pH 7.4, room temperature, UV 222 nm; read-out: Solubility in phosphate buffer (pH 7.4)
endpoint: solubility at 24 h (µg/mL)
The answer is to be given in µg/mL; state only the numeric part.

Ask | State its solubility at 24 h: CC(C)Cc1ccc(C(C)C(=O)O)cc1 (stereo not shown) [Ibuprofen, 2-(4-iso-butylphenyl)-propanoic acid]
Reply | 25.2
